- test_target: T1, mouse 4-1BB protein (extracellular domain) (mouse, UniProt P20334 24-187)
- T1 construct: extracellular domain; also called mouse 4-1BB-his; mouse 4-1BB-hFc protein
- T1 sequence (looked up): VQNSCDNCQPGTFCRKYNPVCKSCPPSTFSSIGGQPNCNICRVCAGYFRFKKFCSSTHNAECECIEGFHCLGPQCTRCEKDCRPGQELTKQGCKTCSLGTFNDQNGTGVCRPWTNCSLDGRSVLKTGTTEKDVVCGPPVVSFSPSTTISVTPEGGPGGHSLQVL
- procedure_text: ELISA, coated mouse 4-1BB; Ab 0.08 ug/ml
Catalogue of OD450 nm readings, one per entry.

Worked cases, OD450 nm given:
binder	assay_value
172E3E3 (antibody, V domains shown) VH: QVQLQESGPGLVKPSGTLSLTCAVSGGSISSSNWWSWVRQPPGKGLEWIGEIYHSGSTNYNPSLKSRVTISVDKSKNQLSLNLSSVTAADTAVYYCARQGGVAGTLYWYFDLWGRGTLVTVSS VL: DIVMTQSPLSLPVTPGEPASISCRSSQGLLHSNGYNYLDWYLQKPGQSPQLLIYLGSNRASGVPDRFIGSGSGTDFTLKIRRVEAEDVGVYYCMQVLQTPWTFGQGTKVEIK	0.05 OD450 nm
118F3A2 (antibody, V domains shown) VH: QVQLQQWGAGLLKPSETLSLTCGVYGGSFSTNYWSWIRQSPGKGLEWIGEINHSGNTEYNPSLKSRLTISIDTSKNQFSLKLTSVTAADTAVYYCARMGYHSPSFDFWGQGVLVTVSS VL: KIVMTQSPATLSVSPGERATLPCRVSQGIGSNLAWYQQKPGQAPRLLIYGASTRATGVPARFSGSGSGSEFTLTISSLQSEDLALYYCQQYNNWPLTFGGGTKVEIK	0.12 OD450 nm
170D7F2 (antibody, V domains shown) VH: QVQLVQSGAEVKKPGASVKVSCKASGYTFTSYDINWVRQATGQGLEWMGWMNPNSGNTGYAQKFQGRVTMTRNTSISTAYMELSSLRSEDTAVYYCARETGPFDYWGQGTLVTVSS VL: DIQMTQSPSSLSASVGDRVTITCRASQRINNYLNWYQQKPGKAPKLLIYGASSLQSGVPSRFSGSGSGTDFTLTISSLQPEDFATYYCQQSYSTPFTFGPGTKVDIK	0.1 OD450 nm

// switching to the query binder
Qu. // lookup OD450 nm for 57B3D10 (antibody, V domains shown, also called 4-1BB fully human antibody 57B3D10) VH: QVQLQESGPGLVKPSETLSLTCTVSGGSISSYYWSWIRQPPGKGLEWIGYIYYSGSTNYNPSLKSRVTISVDTSKSQFSLKLTSVTAADTAVYYCAKDSDYYGSGSYSYWYFDLWGRGTLVTVSS VL: EIVMTQSPATLSVSPGERATLSCRASQSVSSNLAWYQQKPGQAPRLLIYGASTRAPGIPARFSGSGSGTEFTLTISSLQSEDFAVYYCQQYNNWPLTFGGGTKVEIK
Ans. 0.14 OD450 nm
